The reported measurements were obtained from PubChem BioAssay.

assay.text: inhibitors of TNFa-induced NFkB p65 translocation, primary screen, imaging, HUVEC, MLSMR starter and 10KST1 sets (AID 438);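 note: compound added about 3h40 before a 20 min TNFalpha stimulation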
settings: HUVEC TNFa-induced p65 nuclear translocation; measured here: nuclei count (cytotoxicity indicator), at 2.08 µM

# molecule, cell count
measured = [
    ("COc1ccccc1-c1nnc2sc(COc3ccccc3)nn12", 670),
    ("COc1ccc(-c2cc(=O)[nH]c(=O)[nH]2)cc1", 636),
    ("CC1(C)Cc2c(C#N)c(NCC3CCCO3)nc(-c3ccco3)c2CO1 (stereo unspecified)", 508),
    ("c1coc(-c2nnc3sc(C4CCCCC4)nn23)c1", 653),
    ("CC(=O)N/C(=N/c1nc(C)cc(C)n1)Nc1ccc(NC(C)=O)cc1", 647),
    ("Cc1ccc(Cl)c(Nc2ccccc2C(=O)O)c1Cl", 583),
]

* * *

assay.text: inhibitors of TNFa-induced NFkB p65 translocation, primary screen, imaging, HUVEC, MLSMR starter and 10KST1 sets (AID 438);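 note: compound added about 3h40 before a 20 min TNFalpha stimulation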
settings: HUVEC TNFa-induced p65 nuclear translocation; measured here: nuclei count (cytotoxicity indicator), at 2.08 µM
readout.label: cell count

# compound, reported.measurement
measured = [
    ("Cc1ccc2nc(C(F)(F)F)c(C#N)c(N)c2c1", 451),
    ("Oc1ccccc1CNn1cnnc1", 563),
    ("C[C@]12C[C@H](O)[C@H]3[C@@H](CCC4=CC(=O)CC[C@@]43C)[C@@H]1CC[C@@H]2C(=O)CO", 627),
    ("CCOC(=O)c1[nH]c2ccc(Br)cc2c1NC(=O)CCN1CCC(C(=O)OCC)CC1", 566),
    ("C=CCn1c(SCC(=O)OC)nc2sc3c(c2c1=O)CCN(C)C3", 489),
    ("COc1ccc(C2=Nn3c(nnc3-c3ccccc3)SC2)cc1OC", 523),
    ("O=C(c1ccccc1)C(CCC(CN1CCOCC1)C(=O)c1ccccc1)CN1CCOCC1 (stereo not given)", 588),
    ("Cc1ccc2[nH]c3c(N4CCN(Cc5ccccc5)CC4)ncnc3c2c1", 328),
    ("O=c1[nH]c(CN2CCCCC2)nc2c1C1(CCCC1)Cc1ccccc1-2", 414),
    ("CCOC(=O)[C@H](CCc1ccccc1)N[C@@H](C)C(=O)N1CCC[C@H]1C(=O)O", 512),
]

* * *

Recorded measurements of z-score, one per entry
assay.text: DUSP6 inhibitors restoring Erk phosphorylation by chemical complementation, primary imaging in DUSP6-transfected HeLa (AID 609)
settings: HeLa MKP-3 transfected, phospho-Erk imaging KS statistic; measured here: nuclear pErk red intensity z-score; at 10 µM; stronger effect = higher value; cells stimulated with TPA for 15 min

# compound, z-score
rows = [
    ("COc1ccc(NS(=O)(=O)c2ccc(N)cc2)nn1", 2.96),
    ("O=C1OC2CCC1(c1ccccc1)C2 (centres undefined)", 0.719),
    ("CCn1cc(C(=O)NCCCN(C)C)c(=O)c2cc(F)c(N3CCN(C)CC3)cc21", -0.542),
    ("O=C(CCN1CCCCC1)Nc1cccc(Cl)c1", 0.516),
    ("O=c1[nH]c(CN2CCCCC2)nc2c1C1(CCCCC1)Cc1ccccc1-2", -1.87),
    ("NC(=O)CSc1c[nH]c2ccccc12", -1.28),
    ("CCN(CC)CCn1c(O)c(N=O)c2ccccc21", 0.221),
    ("OC(CNCCCN1CCCCC1)COc1ccccc1 (centres undefined)", 0.518),
    ("N=c1nc(N2CCCCC2)cc(N)n1O", 0.315),
    ("CC1(C)Cc2c(C#N)c(NCCN3CCOCC3)nc(-c3ccco3)c2CO1", -1.62),
    ("CC1(C)Cc2c(C#N)c(NCc3ccco3)nc(-c3ccco3)c2CO1", 0.89),
    ("N#CC1=C2SCC(O)(c3ccccc3)N2C(=O)CC1c1ccccc1 (centres undefined)", 2.84),
    ("Brc1cccc(-c2cnc3n2CCCCC3)c1", 1.65),
    ("Clc1ccc2[nH]c3c(NCCCN4CCOCC4)ncnc3c2c1", 1.38),
    ("COc1ccc2c(c1)nc(N)n2Cc1ccccc1", 1.13),
    ("COc1ccccc1C1(CC(=O)N2CCOCC2)CCOC(C(C)C)C1 (centres undefined)", 1.01),
    ("Cn1c(=O)n(CCC(=O)O)c2ccccc21", 0.787),
    ("CC(=O)Nc1ccccc1O", -0.0939),
    ("CCN(CC)CCN1C(=O)C(O)=C(C(=O)c2ccco2)C1c1ccccn1 (centres undefined)", 0.388),
    ("CCCCOC(=O)CSc1nc(N)c(C#N)c(-c2ccc(OC)cc2)c1C#N", 1.46),
    ("CC12CCC(C(=O)N(CCC#N)CCC#N)(CC1=O)C2(C)C (centres undefined)", 1.43),
    ("CCSc1nc(O)c(C2OC(=O)c3c2ccc(OC)c3OC)c(=O)n1-c1ccccc1 (centres undefined)", -0.555),
    ("O=S(=O)(c1ccccc1)N1CCC(N2CCCCCC2)CC1", 0.193),
    ("CCOC(=O)c1oc2cc(O)cc(C)c2c(=O)c1-c1cscn1", -1.73),
    ("CCOC(=O)CNS(=O)(=O)c1cc(-c2nn(C)c(=O)c3ccccc23)ccc1C", -0.809),
    ("COc1cc2nc(N3CCN(C(=O)c4ccco4)CC3)nc(N)c2cc1OC", -1.9),
    ("CC1CCc2cc(F)cc3c(O)c(C(=O)NCC4CCCO4)c(=O)n1c23 (centres undefined)", -0.351),
    ("Cc1cccc(C)c1NC(=O)CSCC(=O)c1ccc(O)c(O)c1", 0.0935),
    ("CN=c1sc2ccccc2n1CC(O)COCc1ccco1 (centres undefined)", 0.235),
    ("Nc1ccc2oc3ncccc3c(=O)c2c1", -0.617),
    ("CSc1nc(N)nc(SCC(=O)OC(C)C)c1C#N", -1.26),
    ("CC1(C)CC(=O)C(CCCN2C(=O)c3ccccc3C2=O)C(=O)C1", -1.11),
    ("COc1ccc(Cn2c(O)cc(=O)[nH]c2=O)cc1", -0.805),
    ("Cc1ccc(Cn2ncc3c(N4CCN(c5ccc(C)cc5)CC4)ncnc32)cc1", 1.42),
    ("CCOc1nc(SCCOc2ccc(C)cc2)nc(N(C)C)n1", -0.85),
    ("O=C(CCC(=O)CCN1CCCCC1)CCN1CCCCC1", 0.253),
    ("Cc1nc(N2CCOCC2)c(C#N)c2c1COC(C)(C)C2", -1.11),
    ("COc1cc(C(=O)OCCN2CCCCC2)ccc1O", 0.828),
    ("CCCCCCc1cc2cc(-c3nnc(-c4ccccc4O)o3)c(=O)oc2cc1O", -1.3),
    ("c1cncc(-c2nnc3sc(-c4ccco4)nn23)c1", 1.09),
    ("CC1(C)Cc2c(C#N)c(N3CCOCC3)nc(-c3ccccc3)c2CO1", 0.333),
    ("CCOC(=O)C(c1ccccc1)N1CCN(c2ccc(OC)cc2)CC1 (centres undefined)", -1.39),
    ("COc1cc(NC2=CC(=O)CC(C)(C)C2)cc(OC)c1OC", 0.715),
    ("CC(C)OC(=O)c1sc2nc3c(cc2c1N)C(=O)CCC3", -0.674),
    ("c1cc2c(cc1C1=Nn3c(nnc3C3CCCCC3)SC1)OCO2", -0.0709),
    ("O=C(NCC(F)(F)F)N1CCOCC1", 0.9),
    ("Cn1c2c(c(=O)n(C)c1=O)C(NC(=O)C(C)(C)C)(C(F)(F)F)C(=O)N2 (centres undefined)", -0.945),
    ("O=C(CNC1=NCCC1)c1ccc2c(c1)OCCO2", -0.547),
    ("COc1ccc(-c2oc3ncn4nc(Cc5ccccc5)nc4c3c2-c2ccc(OC)cc2)cc1", 0.443),
]
